The reported numbers originate from ChEMBL document CHEMBL1157539.

Tested on: Plasmodium falciparum
ASSAY_PROCEDURE: GSK_TCMDC: Inhibition of Plasmodium falciparum Dd2 in whole red blood cells, using parasite LDH activity as an index of growth. Test compounds present at 2uM
Assay type: functional
# strict inequality: Inhibition < 90% yields MET, everything else yields NOT MET

Would you please look over these solved cases?
• Cc1cc(OCC2CCN(c3ncc(C(=O)Nc4ccccc4)cc3Cl)CC2)ccc1F = MET
• N#Cc1ccc(C(=O)Nc2cc(-c3cccc(O)c3)cc3[nH]ncc23)cc1 = MET
• Cl.O=C(/C=C/c1ccc(F)cc1)NC1CCC(CCN2CCc3ccccc3CC2)CC1 (stereo not given) = MET
• Cn1cccc1C(=O)NCC(CCNc1cc(=O)c2ccccc2[nH]1)NCc1cc(Br)cc(Br)c1 (stereo not given) = MET

Qu. Field: below-cutoff. Rule: recorded Inhibition strictly less than 90%. Subject: O=C(c1ccc(-c2ccc(-c3nc4cc(F)ccc4[nH]3)cc2)cc1)N1CCCCC1CN1CCC(O)C1 (stereo not given)
Ans. NOT MET

###

Tested on: Plasmodium falciparum
ASSAY_PROCEDURE: GSK_TCMDC: Inhibition of Plasmodium falciparum Dd2 in whole red blood cells, using parasite LDH activity as an index of growth. Test compounds present at 2uM
Assay type: functional
Criterion: Inhibition meeting or surpassing 50%. Met: TRUE. Not met: FALSE.

Qu. Would you say Br.CCSc1ccccc1CON1C(=N)N=C(N)NC1(C)C shows Inhibition at minimum 50%?
Ans. FALSE

Qu. Would you say COc1ccc2nc3cc(Cl)ccc3c(Nc3ccc(Sc4ccc(Nc5c6ccc(Cl)cc6nc6ccc(OC)cc56)cc4)cc3)c2c1.Cl shows Inhibition at minimum 50%?
Ans. TRUE

Qu. Would you say O=C(Nc1ccc(CN2CCN(S(=O)(=O)c3ccc(Cl)s3)CC2)cc1)c1cccs1.O=C(O)C(F)(F)F shows Inhibition at minimum 50%?
Ans. TRUE

Qu. Would you say COc1ccc2c(NN=Cc3cccnc3)ccnc2c1 shows Inhibition at minimum 50%?
Ans. FALSE

Qu. Would you say CCNc1cc(C)nc(Nc2ccc(NS(=O)(=O)c3ccccc3)cc2)n1 shows Inhibition at minimum 50%?
Ans. TRUE

Qu. Would you say Cc1sc(CNCCCNc2cc(=O)c3ccccc3[nH]2)c(C(F)(F)F)c1C.Cl shows Inhibition at minimum 50%?
Ans. TRUE

Qu. Would you say COc1ccc(-c2csc(N(CCCN(C)C)C(=O)c3cc4c(C)nn(-c5ccccc5)c4s3)n2)cc1.Cl shows Inhibition at minimum 50%?
Ans. FALSE

###

Tested on: Plasmodium falciparum
ASSAY_PROCEDURE: GSK_TCMDC: Inhibition of Plasmodium falciparum 3D7 in whole red blood cells, using parasite LDH activity as an index of growth. Test compounds present at 2uM
Type: functional
The entries below are paired with their reported Inhibition.
Please give a number only; it is taken to be in %.

Worked examples follow.
• Cc1ccc2c(=O)c3cc(C)ccc3[nH]c2c1 = 96
• CC(=O)c1ccc(NC(=O)NNC(=O)c2ccc(CCN3CCC(c4nc(COCC(F)(F)F)c(-c5ccc(F)cc5)o4)CC3)cc2)cc1 = 96
• N=C(Nc1nc(-c2ccccn2)cc2ccccc12)c1cccc(Cl)c1 = 100
• CCCN(CC1CC1)c1ncc(-c2ccccc2CNCc2ccccc2O)cn1 = 100
• CC(=O)N(C)c1cccc(C(=O)Nc2cccc(-c3cccc(-c4nc5cccc(C)c5[nH]4)c3)c2)c1 = 89
• Cc1ccc2c(c1[N+](=O)[O-])N=NCC2Oc1ccccc1 (stereo not given) = 91
• O=C(O)C(F)(F)F.OCCC1CCN(Cc2ccc(-c3ccc(-c4nc5ccccc5[nH]4)cc3)cc2)CC1 = 99
• Cc1nc(N)nc(N)c1Oc1cccc(Cl)c1.O=S(=O)(O)O = 94
• COc1ccc2c(=O)c(I)c(C)[nH]c2c1 = 96
• Cc1nc(N)nc(N)c1CCCOc1ccccc1Cl = 98

# molecule Oc1cc(-c2cccc(C(F)(F)F)c2)nc(Nc2ccc(Cl)c(Cl)c2)n1 ; its Inhibition = 97

# molecule COc1ccc2nccc([C@@H](O)CN3CCC(NCc4cc5cccc(O)c5c(=O)[nH]4)CC3)c2c1.Cl ; its Inhibition = 99

# molecule COc1cc(-c2nc3ccc(N4CCN(C)CC4)cc3[nH]2)cc(OC)c1OC ; its Inhibition = 87

# molecule OC(CN1CCN(Cc2ccccc2)CC1)Cn1c(-c2ccccc2)c(-c2ccccc2)c2ccccc21 (stereo not given) ; its Inhibition = 98

# molecule CN1Cc2cc(NC(=O)/C=C/c3ccccc3Cl)ccc2C(C)(C)C1.Cl ; its Inhibition = 99

# molecule Cl.NC[C@H](CC1CCCCC1)NC(=O)c1ccc(-c2ccnc3[nH]ccc23)s1 ; its Inhibition = 98

# molecule O=C(O[C@@H]1CN[C@H](C#Cc2cc3c(Nc4ccc5c(cnn5Cc5ccccc5)c4)ncnc3s2)C1)N1CCCC1 ; its Inhibition = 99

# molecule CCCCCCOc1ccc(/C(N)=N\Cc2ccccc2)c2c1CCCC2.Cl ; its Inhibition = 96

# molecule Cc1c(CCC#N)c(NCc2ccccc2)n2c(nc3ccccc32)c1C#N ; its Inhibition = 100

# molecule COc1cc2nc(N[C@@H](CO)c3ccccc3)nc(NCc3ccccc3)c2cc1OC ; its Inhibition = 100
